# study-system: SFRP-1 (Homo sapiens)
# Sequence (Q8N474 32-314): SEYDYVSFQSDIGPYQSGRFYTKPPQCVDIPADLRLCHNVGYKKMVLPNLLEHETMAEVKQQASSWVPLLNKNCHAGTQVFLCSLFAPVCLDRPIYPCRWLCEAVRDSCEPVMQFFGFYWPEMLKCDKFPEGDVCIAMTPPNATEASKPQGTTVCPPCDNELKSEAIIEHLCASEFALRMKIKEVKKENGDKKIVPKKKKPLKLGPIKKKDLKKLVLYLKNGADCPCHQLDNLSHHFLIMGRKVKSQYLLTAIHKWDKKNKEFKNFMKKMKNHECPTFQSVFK
# method: Cell-based assay for in vitro measurement of SFRP-1/SARP2 antagonist activity (U2OS cells co-transfected with 16x TCF-tk-Luciferase reporter, Wnt and hSFRP-1);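 further: U2OS cells co-transfected with a TCF-tk luciferase reporter, a Wnt vector, hSFRP-1 or empty vector and CMV-βgal, luciferase luminescence read in cell lysates alongside βgal activity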
# measurement-conditions: U2OS, read-out: Fold Induction without SFRP-1, Conc 15 μM; single dose; luciferase reporter; cells without SFRP-1 (specificity control)
experimental-endpoint: fold induction at 15 µM

Answered examples (10):
Cc1ccc(S(=O)(=O)c2ccccc2)cc1S(=O)(=O)NC1CCN(C(=O)c2ccno2)CC1 [Example 485] :: 1
CC(C)c1ccc(S(=O)(=O)c2ccc(F)cc2)cc1S(=O)(=O)NC1CCN(S(=O)(=O)c2cccc3c(N(C)C)cccc23)CC1 [Example 518] :: 1.2
CC(C)c1ccc(S(=O)(=O)c2ccc(N(C)C)cc2)cc1S(=O)(=O)NC1CCOCC1 [Example 544] :: 1.2
CC(C)c1ccc(S(=O)(=O)c2cc(Cl)cc(Cl)c2)cc1S(=O)(=O)NCCc1ccccn1 [Example 505] :: 1
CC(C)c1ccc(S(=O)(=O)c2ccc(N3CCN(C)CC3)cc2)cc1S(=O)(=O)NCCC1CCOCC1 [Example 549] :: 1.5
CC(C)c1cc(C(C)C)c(S(=O)(=O)c2ccc(F)cc2)cc1S(=O)(=O)NCCC1CCOCC1 [Example 630] :: 1
CC(C)c1cc(C(C)C)c(S(=O)(=O)c2ccccc2)cc1S(=O)(=O)NCCCn1ccnc1 [Example 615] :: 1
Cc1ccc(S(=O)(=O)c2ccc(F)cc2)cc1S(=O)(=O)NC1CCN(C(=O)N(C)C)CC1 [Example 587] :: 1.2
CCCc1ccc(S(=O)(=O)c2ccc(F)cc2)cc1S(=O)(=O)NCCC1CCOCC1 [Example 562] :: 1.2
Cc1cccc(S(=O)(=O)c2ccc(C(C)C)c(S(=O)(=O)NCCc3ccccn3)c2)c1 [Example 579] :: 1

Give measured fold induction at 15 µM for every item shown.
1. CC(C)(C)NC(=O)N1CCC(NS(=O)(=O)c2cc(S(=O)(=O)c3ccccc3)ccc2Cl)CC1 [Example 649]
2. O=S(=O)(NCCc1ccccn1)c1cc(S(=O)(=O)c2ccccc2)ccc1Br [Example 592]
3. CC(C)c1ccc(S(=O)(=O)c2ccc(N(C)C)cc2)cc1S(=O)(=O)NCCC1CCOCC1 [Example 546]
4. CC(C)c1cc(C(C)C)c(S(=O)(=O)c2ccccc2)cc1S(=O)(=O)NCCc1ccccc1 [Example 609]
5. Cc1ccc(S(=O)(=O)c2ccc(F)cc2)cc1S(=O)(=O)N(C(=O)C1CC1)C1CCN(C(=O)C2CC2)CC1 [Example 602]
6. COCC(=O)N1CCC(NS(=O)(=O)c2cc(S(=O)(=O)c3ccc(F)cc3)ccc2C(C)C)CC1 [Example 519]
7. CN1CCN(CCCNS(=O)(=O)c2cc(S(=O)(=O)c3ccccc3)ccc2Cl)CC1 [Example 642]
8. Cc1ccc(S(=O)(=O)c2ccccc2)cc1S(=O)(=O)NC1CCN(C(=O)OCC(C)C)CC1 [Example 498]

Response line:
1.1
1.1
1.2
1.1
1.1
0.9
1.1
1

Give measured fold induction at 15 µM for every item shown.
1. Cc1nccn1CCNS(=O)(=O)c1cc(S(=O)(=O)c2ccc(F)cc2)ccc1C(C)C [Example 583]
2. CC(C)c1ccc(S(=O)(=O)c2ccc(F)cc2)cc1S(=O)(=O)NC1CCNCC1 [Example 520]
3. CC(C)c1ccc(S(=O)(=O)c2ccc(F)cc2)cc1S(=O)(=O)NC1CCN(C(=O)OC(C)(C)C)CC1 [Example 517]

Response line:
[1.1, 1.1, 1]
